TARGET_OR_TEST_SYSTEM: ferroportin (Homo sapiens, UniProt Q9NP59)
Sequence (Q9NP59 whole entry): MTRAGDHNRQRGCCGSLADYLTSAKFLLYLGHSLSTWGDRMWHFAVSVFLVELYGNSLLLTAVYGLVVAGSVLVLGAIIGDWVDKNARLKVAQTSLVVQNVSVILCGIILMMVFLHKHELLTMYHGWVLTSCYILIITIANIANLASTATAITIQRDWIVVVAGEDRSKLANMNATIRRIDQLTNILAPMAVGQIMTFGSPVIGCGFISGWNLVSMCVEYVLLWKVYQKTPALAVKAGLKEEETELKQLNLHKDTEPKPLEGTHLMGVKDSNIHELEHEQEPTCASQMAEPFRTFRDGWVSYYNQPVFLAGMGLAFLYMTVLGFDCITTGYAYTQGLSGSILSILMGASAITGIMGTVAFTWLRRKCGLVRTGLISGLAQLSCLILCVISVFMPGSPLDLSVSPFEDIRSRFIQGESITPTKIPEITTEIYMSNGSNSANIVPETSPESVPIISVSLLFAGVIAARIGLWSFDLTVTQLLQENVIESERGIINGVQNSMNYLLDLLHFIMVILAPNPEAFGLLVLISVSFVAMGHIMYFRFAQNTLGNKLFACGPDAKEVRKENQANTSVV
ASSAY_PROTOCOL: T47D cell-based ferroportin internalization assay in presence of mouse serum albumin (MSA)
Set-up: a human breast carcinoma adherent cell line which endogenously expresses ferroportin; host or cells: T47D
MEASUREMENT_CONTEXT: Table 6E; T47D internalization assay with MSA
Positions of bridges follow the written chain, without caps; N, C: chain ends. Non-standard residues stand in square brackets, D forms with d. Residues, ends and D or L forms follow the SMILES beside them. Groups on a side chain read outwards from the residue. *: point of attachment. X5 = CCCCCCCCCCCCCCCC(=O)NCC[N+](C)(C)CC(=O)*; Dip = N[C@H](C(=O)O)C(c1ccccc1)c1ccccc1; Pro(3R-OH) = O=C(O)[C@H]1NCC[C@H]1O; Palmitoyl = CCCCCCCCCCCCCCCC(=O)*; NMeT = CN[C@H](C(=O)O)[C@@H](C)O; NMeE = CN[C@@H](CCC(=O)O)C(=O)O; NMeK = CN[C@@H](CCCCN)C(=O)O; Isovaleryl = CC(C)CC(=O)*; Ahx = NCCCCCC(=O)O
Recorded IC50 for the following compounds

CCCCCCCCCCCCCCCC(=O)NCC[N+](C)(C)CC(=O)NCCCC[C@@H](C(=O)N[C@H](C(=O)N[C@H](CCCCN)C(N)=O)C(c1ccccc1)c1ccccc1)N(C)C(=O)[C@@H]1CSSC[C@H](NC(=O)[C@@H]2CCCN2C(=O)[C@@H](NC(=O)[C@H](Cc2c[nH]cn2)NC(=O)[C@@H]2[C@H](O)CCN2C(=O)[C@H](CCC(=O)OC)NC(=O)CC(C)C)C(c2ccccc2)c2ccccc2)C(=O)N1 [compound 151] (Isovaleryl-E(OMe)[Pro(3R-OH)]H[Dip]PCC[NMeK](X5)[Dip][dK]-NH2; disulfide 6-7) | 1 to 10 nM
CCCCCCCCCCCCCCCC(=O)NCCCCCC(=O)NCCCC[C@@H](C(=O)N[C@H](C(N)=O)C(c1ccccc1)c1ccccc1)N(C)C(=O)[C@@H]1CSSC[C@H](NC(=O)[C@@H]2CCCN2C(=O)[C@@H](NC(=O)[C@H](Cc2cnc[nH]2)NC(=O)[C@H]([C@@H](C)O)N(C)C(=O)[C@H](CCC(=O)O)NC(=O)CC(C)C)C(c2ccccc2)c2ccccc2)C(=O)N1 [compound 172] (Isovaleryl-E[NMeT]H[Dip]PCC[NMeK]([Ahx-Palmitoyl])[Dip]-NH2; disulfide 6-7) | 1 to 10 nM

Can you share its IC50? I mean this compound: CCCCCCCCCCCCCCCC(=O)NCCCCCC(=O)NCCCC[C@@H](C(=O)N[C@H](C(=O)N[C@H](CCCCN)C(N)=O)C(c1ccccc1)c1ccccc1)N(C)C(=O)[C@@H]1CSSC[C@H](NC(=O)[C@@H]2CCCN2C(=O)[C@@H](NC(=O)[C@H](Cc2cnc[nH]2)NC(=O)[C@@H](NC(=O)[C@H](CCC(=O)O)N(C)C(=O)CC(C)C)[C@@H](C)O)C(c2ccccc2)c2ccccc2)C(=O)N1 [compound 166] (Isovaleryl-[NMeE]TH[Dip]PCC[NMeK]([Ahx-Palmitoyl])[Dip][dK]-NH2; disulfide 6-7)
1 to 10 nM
